// data source = patent US5625046A

# assay-explanation: removal of 2'-protecting groups by acidic hydrolysis at 25° C. (HPLC)
# Type: physicochemical
# experimental-parameters: pH 2.0; 25° C.
quantity-name: t0.99 (calculated time for 99% removal of the 2'-protecting group) (min)

P: COC1(O[C@@H]2[C@H](OP(=O)(O)OC[C@H]3O[C@@H](n4ccc(=O)[nH]c4=O)[C@H](O)[C@@H]3O)[C@@H](CO)O[C@H]2n2ccc(=O)[nH]c2=O)CCN(c2ccc(C)cc2Cl)CC1
Q: COC1(O[C@@H]2[C@H](O)[C@@H](CO)O[C@H]2n2ccc(=O)[nH]c2=O)CCN(c2ccccc2)CC1 [reference compound]
Task: Which value of t0.99 (calculated time for 99% removal of the 2'-protecting group) is smaller, the one for P or the one for Q ? Identify your pick by its label.
Output: P

P: COC1(O[C@@H]2[C@H](O)[C@@H](CO)O[C@H]2n2ccc(=O)[nH]c2=O)CCN(c2ccc(C)cc2Cl)CC1
Q: COC1(O[C@@H]2[C@H](O)[C@@H](CO)O[C@H]2n2ccc(=O)[nH]c2=O)CCOCC1 [reference compound]
Task: # query: argmin of t0.99 (calculated time for 99% removal of the 2'-protecting group) over P and Q Please indicate the selected item by its label.
Output: Q
(Q: 136 min, P: 272 min)
